ASSAYED_TARGET: T1, human PD-L1 (hPD-L1) expressed on transfected 300.19 cells (human, UniProt Q9NZQ7 19-290)
T1 construct: whole, on cells; also called B7H1
T1 sequence (Q9NZQ7 19-290): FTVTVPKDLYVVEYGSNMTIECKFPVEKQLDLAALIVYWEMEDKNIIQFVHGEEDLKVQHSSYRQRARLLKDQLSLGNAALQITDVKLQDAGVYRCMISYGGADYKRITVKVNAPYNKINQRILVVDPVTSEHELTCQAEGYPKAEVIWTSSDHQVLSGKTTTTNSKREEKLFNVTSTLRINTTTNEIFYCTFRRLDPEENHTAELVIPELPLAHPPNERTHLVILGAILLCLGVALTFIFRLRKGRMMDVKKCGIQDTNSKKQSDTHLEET
TEST_PROTOCOL: competition FACS, hPD-L1 300.19 cells, signal = bound hPD-1-mIgG2a, Ab 0.1 ug/ml
RESULT_TYPE: Cells PE-A Mean (bound hPD-1-mIgG2a) (MFI)
Provide only the numeric value, understood in MFI.

Observe how each entry below is paired with its result.
BINDER	RESULT_UNIT	Cells PE-A Mean (bound hPD-1-mIgG2a)
Ab-50 (antibody, V domains shown, also called huPD-L1 Ab # 50) VH: QVQLVQSGGEVKKPGASVKVSCKASGYTLSSHGITWVRQAPGQGLEWMGWISAHNGHASNAQKVEDRVTMTTDTSTNTAYMELRSLTADDTAVYYCARVHAALYYGMDVWGQGTLVTVSS VL: QSVLTQPPSVSVAPGQTARITCGGNNIGSKGVHWYQQKPGQAPVLVVYDDSDRPSGIPERFSGSNSGNTATLTISRVEAGDEADYYCQVWDSSSDHWVFGGGTKLTVL	MFI	2800
Ab-52 (antibody, V domains shown, also called huPD-L1 Ab # 52) VH: QVQLQESGGGVVQPGRSLRLSCSASGFTFSRHGMHWVRQAPGKGLEWVAVISHDGSVKYYADSMKGRFSISRDNSNNTLYLQMDSLRADDTAVYYCARGLSYQVSGWFDPWGQGTLVTVSS VL: NFMLTQPHSVSESPGKTVTISCTRSSGSIASNYVQWYQQRPGSAPTTVIYEDNQRPSGVPDRFSGSIDSSSNSASLTISGLKTEDEADYYCQSYDSTTPSVFGGGTKLTVL	MFI	6750
Ab-42 (antibody, V domains shown, also called huPD-L1 Ab # 42; mAb42) VH: QVQLVQSGAEVKKPGSSVKVSCKASGGTFSSYAISWVRQAPGQGLEWMGGIIPIFGTANYAQKFQGRVTITADKSTSTAYMELSSLRSEDTAVYYCARGRQMFGAGIDFWGPGTLVTVSS VL: NFMLTQPHSVSESPGKTVTISCTRSSGSIDSNYVQWYQQRPGSAPTTVIYEDNQRPSGVPDRFSGSIDSSSNSASLTISGLKTEDEADYYCQSYDSNNRHVIFGGGTKLTVL	MFI	3140
Ab-55 (antibody, V domains shown, also called huPD-L1 Ab # 55) VH: QVQLVQSGAEVKKPGASVKVSCKASGYTFTSYGISWVRQAPGQGLEWMGWTSPHNGLTAFAQILEGRVTMTTDTSTNTAYMELRNLTFDDTAVYFCAKVHPVFSYALDVWGQGTLVTVSS VL: NFMLTQPHSVSESPGKTVTISCTRSSGSIASNYVQWYQQRPGSSPTTVIYEDNQRPSGVPDRFSGSIDTSSNSASLTISGLKTKDEADYYCQSYDGITVIFGGGTKLTVL	MFI	9140
Ab-31 (antibody, V domains shown, also called huPD-L1 Ab # 31) VH: QVQLVQSGAEVKKPGATVKVSCKVFGDTFRGLYIHWVRQAPGQGLEWMGGIIPIFGTANYAQKFQGRVTITTDESTSTAYMELSSLRSEDTAVYYCASGLRWGIWGWFDPWGQGTLVTVSS VL: EIVLTQSPATLSLSPGERATLSCRASQSIGNSLAWYQQKPGQAPRLLMYGASSRATGIPDRFSGSGAGTDFTLTISSLEPEDFATYYCQQHTIPTFSFGPGTKVEVK	MFI	7930
Ab-30 (antibody, V domains shown, also called huPD-L1 Ab # 30) VH: QVQLVQSGGSVVRPGESLRLSCVASGFIFDNYDMSWVRQVPGKGLEWVSRVNWNGGSTTYADAVKGRFTISRDNTKNSLYLQMNNLRAEDTAVYYCVREFVGAYDLWGQGTTVTVSS VL: QSALTQPASVSGSPGQSITISCTGTSSDVGGYNYVSWYQQHPGKAPKLMIYDVSNRPSGVSNRFSGSKSGNTASLTISGLQAEDEADYYCSSYTSSTLPFGGGTKLTVL	MFI	4780

Now take the following binder into account.
Annotate the binder Ab-14 (antibody, V domains shown, also called huPD-L1 Ab # 14) VH: QVQLVQSGAEVKKPGASVKVSCKASGYTFTSYGISWVRQAPGQGLEWMGWISAYNGNTNYAQKLQGRVTMTTDTSTSTAYMELRSLRSDDTAVYYCARALPSGTILVGGWFDPWGQGTLVTVSS VL: NFMLTQPHSVSESPGKTVTISCTRSSGNIASNYVQWYQQRPGSAPTTVIYEDNQRPSGVPDRFSGSIDSSSNSASLTISGLKTEDEADYYCQSYDSSNLWVFGGGTKLTVL with its measured Cells PE-A Mean (bound hPD-1-mIgG2a).
14900

Attribution: patent US20200385482A1
